- Substrate: F protein of hRSV strain Long (hRSV strain Long)
- run_description: binding ELISA on coated hRSV (Hytest), anti-VHH detection
pEC50: −log10 of the molar value.
Reported pEC50 values for a set of binders

{"binder": "Nanobody NC41 (VHH) VHH: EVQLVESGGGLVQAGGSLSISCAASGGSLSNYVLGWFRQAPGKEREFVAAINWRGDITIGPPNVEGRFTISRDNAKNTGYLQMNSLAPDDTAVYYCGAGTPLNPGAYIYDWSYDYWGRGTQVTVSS", "pEC50": 9.39}
{"binder": "Nanobody 191E4 (VHH) VHH: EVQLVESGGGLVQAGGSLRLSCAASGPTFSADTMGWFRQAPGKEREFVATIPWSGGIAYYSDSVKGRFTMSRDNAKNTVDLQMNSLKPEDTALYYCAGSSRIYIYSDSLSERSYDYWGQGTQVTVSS", "pEC50": 10.08}
{"binder": "Nanobody NC23 (VHH) VHH: EVQLVESGGGLVQPGGSLRLSCAASGRTFSSIAMGWFRQAPGKEREFVAAISWSRGRTFYADSVKGRFIISRDDAANTAYLQMNSLKPEDTAVYYCAVDTASWNSGSFIYDWAYDHWGQGTQVTVSS", "pEC50": 10.00}
{"binder": "Nanobody 1E4 (VHH) VHH: EVQLVESGGGLVQAGGSLRLSCEASGRTFSSYGMGWFRQAPGKEREFVAAVSRLSGPRTVYADSVKGRFTISRDNAENTVYLQMNSLKPEDTAVYTCAAELTNRNPGAYYYTWAYDYWGQGTQVTVSS", "pEC50": 10.18}

The values you see were collected from patent US20150118233A1.
